# thermal shift delta Tm per record follows
Test system: LOC_OS07G07230-cb001;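 note: purified Escherichia coli-expressed rice kinase domain construct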
PROCEDURE_SUMMARY: thermal shift delta Tm vs DMSO control; higher = stronger stabilization (binding)
TEST_SETTINGS: 12.5 µM; protein concentration 2 µM
PROPERTY: thermal shift delta Tm

INSERT INTO measurements (compound, property, measured) VALUES
  ('Cn1c(=O)c(F)c(Nc2ccc(I)cc2F)c2c(=O)n(C[C@@H](O)CO)cnc21', 'thermal shift delta Tm', '0.02 °C'),
  ('COc1cc2c(Oc3ccc(NC(=O)C4(C(=O)Nc5ccc(F)cc5)CC4)cc3F)ccnc2cc1OCCCN1CCOCC1', 'thermal shift delta Tm', '0.3 °C'),
  ('CCCCNc1ncc2c(-c3ccc(CN4CCN(C)CC4)cc3)cn([C@H]3CC[C@H](O)CC3)c2n1', 'thermal shift delta Tm', '-0.01 °C'),
  ('CC(C)(C)c1cc(NC(=O)Nc2ccc(Oc3ccnc4[nH]c(=O)cnc34)cc2F)n(-c2ccccc2)n1', 'thermal shift delta Tm', '-0.1 °C'),
  ('CN1CCN(c2cccc(Nc3nc4c(-c5ccc(S(C)(=O)=O)cc5)cccn4n3)c2)CC1', 'thermal shift delta Tm', '-0.02 °C'),
  ('Nc1cc(C(F)(F)F)c(-c2cc(N3CCOCC3)nc(N3CCOCC3)n2)cn1', 'thermal shift delta Tm', '-0.59 °C'),
  ('CC(C)n1ncnc1-c1cn2c(n1)-c1ccc(O[C@@H](C)C(N)=O)cc1OCC2', 'thermal shift delta Tm', '0.22 °C'),
  ('CN1CCN(Cc2ccc(NC(=O)Nc3ccc(Oc4ccnc(N)n4)cc3)cc2C(F)(F)F)CC1', 'thermal shift delta Tm', '-1.04 °C'),
  ('CC(C)c1cnn2c(NCc3ccccc3)cc(NCCCCCCN)nc12', 'thermal shift delta Tm', '0.18 °C'),
  ('COc1cc2ncnc(Oc3cccc(NC(=O)Nc4cc(C(C)(C)C(F)(F)F)on4)c3)c2cc1OC', 'thermal shift delta Tm', '0.79 °C'),
  ('CC(C)(O)CNc1ncc(-c2ccnc(Nc3ccnc(Cl)c3)n2)c(CC2CC2)n1', 'thermal shift delta Tm', '0.71 °C'),
  ('CC(C)(CO)n1cc(C(=O)c2cncc(NC(=O)Cc3ccc(Cl)cn3)c2)c2cnc(N)nc21', 'thermal shift delta Tm', '0.34 °C'),
  ('CN(C)C[C@@H]1CCn2cc(c3ccccc32)C2=C(C(=O)NC2=O)c2cn(c3ccccc23)CCO1', 'thermal shift delta Tm', '0.33 °C'),
  ('COc1cc2c(c(OC)c1OC)-c1c(cc3c(c1OC)OCO3)CC(C)C(C)C2 (stereo unspecified) [Schisandrin B (Sch B)]', 'thermal shift delta Tm', '-0.17 °C'),
  ('CCCS(=O)(=O)Nc1ccc(F)c(C(=O)c2c[nH]c3ncc(-c4ccc(Cl)cc4)cc23)c1F', 'thermal shift delta Tm', '0.34 °C'),
  ('Cc1ncc(-c2ccnc(Nc3ccc(S(C)(=O)=O)cc3)n2)n1C(C)C', 'thermal shift delta Tm', '0.17 °C'),
  ('Cc1cnc(NC(=O)Nc2cc(Br)c(C)cc2OC[C@@H]2CNCCO2)cn1', 'thermal shift delta Tm', '0.19 °C'),
  ('Cn1cnc2c(F)c(Nc3ccc(Br)cc3F)c(C(=O)NOCCO)cc21', 'thermal shift delta Tm', '-0.18 °C'),
  ('NC(=O)c1cnc2[nH]ccc2c1N[C@@H]1[C@@H]2CC3C[C@H]1C[C@@](O)(C3)C2', 'thermal shift delta Tm', '0.84 °C'),
  ('O=C(Nc1ccc(OC(F)(F)F)cc1)c1sccc1NCc1ccnc2ccccc12', 'thermal shift delta Tm', '-0.46 °C'),
  ('CN(c1ccccc1CNc1nc(Nc2ccc3c(c2)CC(=O)N3)ncc1C(F)(F)F)S(C)(=O)=O', 'thermal shift delta Tm', '0.27 °C'),
  ('O=C(O)c1ccc2c(c1)nc(Nc1cccc(Cl)c1)c1ccncc12', 'thermal shift delta Tm', '0.82 °C'),
  ('Cc1cc(O)c2c(c1)C(=O)c1cccc(O)c1C2=O', 'thermal shift delta Tm', '-0.41 °C'),
  ('O=C1Cc2c([nH]c3ccc(Br)cc23)-c2ccccc2N1', 'thermal shift delta Tm', '0.05 °C'),
  ('COCC(=O)NC/C=C/c1ccc2ncnc(Nc3ccc(Oc4ccc(C)nc4)c(C)c3)c2c1', 'thermal shift delta Tm', '0.08 °C'),
  ('Cc1cc(CN2CCN(c3c(Br)cnc4nc(-c5ccc(N6CCN(C)CC6)cc5)[nH]c34)CC2)no1', 'thermal shift delta Tm', '1.28 °C'),
  ('CCNC(=O)Nc1ccc(-c2nc3c(c(N4CCOC[C@@H]4C)n2)CCN(C2COC2)C3)cc1', 'thermal shift delta Tm', '0.66 °C'),
  ('COC1(c2sc3c(N4CCOCC4)nc(-c4cnc(N)nc4)nc3c2C)COC1', 'thermal shift delta Tm', '0.65 °C'),
  ('CCN1/C(=C/C(C)=O)Sc2ccc(OC)cc21', 'thermal shift delta Tm', '0.23 °C'),
  ('O=C(NOCCO)c1ccc2cncn2c1Nc1ccc(I)cc1F', 'thermal shift delta Tm', '0.91 °C'),
  ('Cc1c(NC(=O)c2ccc(C(C)(C)C)cc2)cccc1-c1cn(C)c(=O)c(Nc2ccc(C(=O)N3CCOCC3)cc2)n1', 'thermal shift delta Tm', '-0.21 °C'),
  ('C1=N/C2=N/c3ccc(OCCN4CCCC4)c(c3)COC/C=C/COCc3cccc(c3)C(=C1)N2 [Pacritinib (SB1518)]', 'thermal shift delta Tm', '0.85 °C'),
  ('COc1cc(OC)c(C=C2C(=O)Nc3ccccc32)c(OC)c1', 'thermal shift delta Tm', '0.96 °C'),
  ('O=C(Nc1cc(C(F)(F)F)cc(C(F)(F)F)c1)c1cc(Cl)ccc1O', 'thermal shift delta Tm', '-0.11 °C'),
  ('Cc1ccc(NC(=O)c2ccc(CN3CCN(C)CC3)cc2)cc1Nc1nccc(-c2cccnc2)n1 [Imatinib (STI571)]', 'thermal shift delta Tm', '0.97 °C'),
  ('O=C(c1ccc(Nc2nccc(-c3cc4ccccc4s3)n2)cc1)N1CCC(N2CCCC2)CC1', 'thermal shift delta Tm', '0.03 °C');
